Target: NK-2 receptors (Cavia porcellus)
Construct: the NK-2 receptors present in the gall-bladder preparations; from tissue; host or cells: Pirbright-White guinea pig: isolated gall-bladder (A2); anaesthetised whole animal (A3)
Sequence (Q64077 1-402): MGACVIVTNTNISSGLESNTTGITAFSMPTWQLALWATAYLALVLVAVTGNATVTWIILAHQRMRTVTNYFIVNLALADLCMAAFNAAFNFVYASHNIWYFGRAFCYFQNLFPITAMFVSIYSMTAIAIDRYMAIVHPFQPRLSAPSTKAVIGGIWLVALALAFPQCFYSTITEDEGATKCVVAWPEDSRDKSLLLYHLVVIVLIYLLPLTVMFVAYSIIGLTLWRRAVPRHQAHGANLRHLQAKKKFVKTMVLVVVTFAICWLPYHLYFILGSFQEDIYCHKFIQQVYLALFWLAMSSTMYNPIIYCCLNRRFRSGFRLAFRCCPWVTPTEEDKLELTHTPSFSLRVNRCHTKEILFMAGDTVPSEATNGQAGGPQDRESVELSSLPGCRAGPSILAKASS
Test: NK-2-receptor-antagonistic effectiveness in vivo in anaesthetised guinea pigs (NKA test stimulus)
Parameters: species or system guinea pig
Conditions: guinea pig, iv; from AUC over 120 min after administration; NK-2-mediated drop in blood pressure; read-out: ED50 Blood pressure, i.v. AUC over 120 min
Item-by-item account of ED50
measurement.label: ED50 (µmol/kg)

- compound: "CN(C[C@@H](CCN1CCN(C(c2ccsc2)[C@H](O)CO)CC1)c1ccc(Cl)c(Cl)c1)C(=O)c1ccccc1 (stereo partly shown)"
  measured.result: 0.004
- compound: "CN(C[C@@H](CCN1CCN(C(c2ccsc2)[C@H](O)[C@H](O)CO)CC1)c1ccc(Cl)c(Cl)c1)C(=O)c1ccccc1 (stereo partly shown)"
  measured.result: 0.047
- compound: "CN(CC(CCN1CCN(C(c2ccco2)[C@H](O)[C@@H](O)[C@H](O)CO)CC1)c1ccc(Cl)c(Cl)c1)C(=O)c1ccccc1 (mixture of isomers)"
  measured.result: 0.025
- compound: "CN(C[C@@H](CCN1CCN(C(c2ccsc2)[C@H](O)[C@@H](O)[C@H](O)CO)CC1)c1ccc(Cl)c(Cl)c1)C(=O)c1ccccc1 (stereo partly shown)"
  measured.result: 0.006

====

target: human NK-2 receptor (Homo sapiens); construct: expressed in transfected cells; host or cells: CHO cells (membrane preparation); test: Binding power of the test substances to NK-2 receptors in vitro ([3H]-SR 48968 displacement, CHO cell membranes); details: displacement of [3H]-SR 48968, 90 min incubation, average of at least three measurements, 10^-6 to 10^-10 mol/l, read-out: pKi, affinity to human NK-2 receptors (converted)
Sequence (P21452 whole entry): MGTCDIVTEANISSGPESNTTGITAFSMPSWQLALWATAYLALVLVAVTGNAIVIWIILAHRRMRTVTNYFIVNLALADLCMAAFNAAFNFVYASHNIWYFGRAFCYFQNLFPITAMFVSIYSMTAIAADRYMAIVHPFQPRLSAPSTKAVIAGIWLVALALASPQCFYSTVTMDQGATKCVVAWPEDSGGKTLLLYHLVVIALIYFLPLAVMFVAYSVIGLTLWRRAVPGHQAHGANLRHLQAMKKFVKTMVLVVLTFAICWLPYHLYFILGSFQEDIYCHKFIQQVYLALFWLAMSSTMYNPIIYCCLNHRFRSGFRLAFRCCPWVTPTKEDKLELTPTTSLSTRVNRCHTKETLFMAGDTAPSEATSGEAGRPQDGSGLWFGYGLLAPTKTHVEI
Ki for assorted compounds

- compound: "CN(C[C@@H](CCN1CCN(C(c2ccsc2)[C@H](O)[C@H](O)CO)CC1)c1ccc(Cl)c(Cl)c1)C(=O)c1ccccc1 (stereo partly drawn)"
  tested.system: "human NK-2 receptor (Homo sapiens)"
  Ki: "≤ 10 nM"
- compound: "CN(CC(CCN1CCN(C(c2cccs2)C(O)CO)CC1)c1ccc(Cl)c(Cl)c1)C(=O)c1ccccc1 (stereo not drawn)"
  tested.system: "human NK-2 receptor (Homo sapiens)"
  Ki: "≤ 10 nM"
- compound: "CN(CC(CCN1CCN(C(c2ccsc2)[C@@H](O)[C@@H](O)[C@H](O)CO)CC1)c1ccc(Cl)c(Cl)c1)C(=O)c1ccccc1 (mixture of isomers)"
  tested.system: "human NK-2 receptor (Homo sapiens)"
  Ki: "≤ 10 nM"
- compound: "CN(CC(CCN1CCN(C(c2cccs2)[C@@H](O)[C@H](O)[C@H](O)CO)CC1)c1ccc(Cl)c(Cl)c1)C(=O)c1ccccc1 (mixture of isomers)"
  tested.system: "human NK-2 receptor (Homo sapiens)"
  Ki: "≤ 10 nM"
- compound: "CN(C[C@@H](CCN1CCN(C(c2ccsc2)[C@H](O)[C@@H](O)[C@H](O)CO)CC1)c1ccc(Cl)c(Cl)c1)C(=O)c1ccccc1 (stereo partly drawn)"
  tested.system: "human NK-2 receptor (Homo sapiens)"
  Ki: "≤ 1 nM"
- compound: "CN(CC(CCN1CCN(C(c2ccsc2)[C@H](O)[C@@H](O)[C@H](O)[C@H](O)CO)CC1)c1ccc(Cl)c(Cl)c1)C(=O)c1ccccc1 (mixture of isomers)"
  tested.system: "human NK-2 receptor (Homo sapiens)"
  Ki: "≤ 10 nM"
